# System: SKOV-3 cell line
# assay_text: In vitro cell viability assay of FA-CDCs (CellTiter-Glo2.0)
# Type: cell-based
# condition_details: FA ligands per particle 12-22; linker-drug conjugates per particle 17-25; read-out: IC50 inSKOV-3 cell line (+++)
outcome_measure: pIC50
One number for each entry, as −log10 of the molar value.

Take a look at these entries with their results.
CCc1c2c(nc3ccc(OCC(=O)N/N=C(\C)c4cccc(OCCOCCOCCOCCOCCOCCN=[N+]=[N-])c4)cc13)-c1cc3c(c(=O)n1C2)COC(=O)[C@]3(O)CC; 7.75
CC[C@@]1(O)C(=O)OCc2c1cc1n(c2=O)Cc2c-1nc1cc(F)c(C)c3c1c2[C@@H](NC(=O)OCc1ccc(NC(=O)[C@H](CCCCN)NC(=O)[C@@H](NC(=O)CCOCCOCCOCCOCCOCCOCCOCCOCCOCCN=[N+]=[N-])C(C)C)cc1)CC3; 9.89

Here's the next entry for you.
Input line: Quick one: pIC50 of CC[C@@]1(O)C(=O)OCc2c1cc1n(c2=O)Cc2c-1nc1cc(F)c(C)c3c1c2[C@@H](NC(=O)OCCSSCCNC(=O)CCOCCOCCOCCOCCOCCOCCOCCOCCOCCN=[N+]=[N-])CC3 ?
Output line: 9.05
